TARGET ENTITY: Polyunsaturated fatty acid lipoxygenase ALOX15B (Homo sapiens) (UniProt O15296)
Sequence (O15296 whole entry, looked up): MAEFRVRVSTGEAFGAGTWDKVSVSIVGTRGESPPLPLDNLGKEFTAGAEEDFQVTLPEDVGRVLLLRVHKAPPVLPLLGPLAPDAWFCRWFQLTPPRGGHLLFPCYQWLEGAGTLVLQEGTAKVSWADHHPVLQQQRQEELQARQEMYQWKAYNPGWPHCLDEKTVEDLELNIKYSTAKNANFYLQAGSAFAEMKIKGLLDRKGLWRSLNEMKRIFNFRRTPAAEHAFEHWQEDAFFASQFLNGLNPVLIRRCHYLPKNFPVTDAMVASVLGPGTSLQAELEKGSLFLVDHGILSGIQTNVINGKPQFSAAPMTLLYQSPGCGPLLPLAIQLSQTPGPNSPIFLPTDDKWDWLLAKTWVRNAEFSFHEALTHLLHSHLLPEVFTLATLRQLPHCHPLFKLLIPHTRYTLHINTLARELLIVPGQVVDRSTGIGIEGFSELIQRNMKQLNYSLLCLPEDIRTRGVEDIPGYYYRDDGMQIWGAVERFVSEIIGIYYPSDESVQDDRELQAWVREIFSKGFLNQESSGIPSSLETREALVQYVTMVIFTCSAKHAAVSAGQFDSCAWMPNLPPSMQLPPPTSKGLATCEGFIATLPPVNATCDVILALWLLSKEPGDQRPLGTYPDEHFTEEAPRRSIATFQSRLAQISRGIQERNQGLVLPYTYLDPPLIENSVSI
ASSAY PROTOCOL: Confirmation qHTS Assay for Inhibitors of 15-hLO-2 (15-human lipoxygenase 2)
CONDITION CONTEXT: purified 15hLO-2, xylenol orange hydroperoxide absorbance; series mostly up to 57.1 µM
Records with an inconclusive call do not appear. The source made the active and inactive calls. The call rests on the fitted dose curve; in most records, active means well fitted inhibition curve with a large enough effect; inconclusive means small, poorly fitted or top-dose-only effect; inactive means no such curve, though single readings can be large or run the other way.
Please answer using one outcome listed in 1 (active), 0 (inactive)

# count of solved cases: 2
CCCC(=O)NC(c1ccco1)c1cc(Cl)c2cccnc2c1O (stereo unspecified) :: 0
COCCSc1ccccc1C(=O)NCc1ccco1 :: 0

Problem: Record lookup: outcome of this test for CN(C)/C=C/C(=O)c1ccc(Cl)cc1 ?
Result: 0

Problem: Same for Nc1cc(-c2ccncc2)c[nH]c1=O
Result: 0

Problem: Same for O=C(Nc1cccc(F)c1)N1CCCC2(CCN(C(=O)c3ccco3)CC2)C1
Result: 0

Problem: Same for CCOC(=O)c1ccc(N2CSC3=C(C#N)C(c4ccc(OC)cc4OC)CC(=O)N3C2)cc1 (stereo unspecified)
Result: 0

Problem: Same for CCC(=O)N(Cc1cc(=O)[nH]c2ccccc12)C1CCCCC1
Result: 0

Problem: Same for CCOC(=O)c1c(NC(=O)CN2CCOCC2)sc2c1CCCC2
Result: 0

Problem: Same for CC1=CC(C)(C)Nc2ccc(OC(=O)CN3C(=O)c4cccc5cccc(c45)C3=O)cc21
Result: 1

Problem: Same for NC(=O)c1cccc2c3c([nH]c12)CCCC3
Result: 0

Problem: Same for CCOc1ccc(NS(=O)(=O)c2ccc3[nH]cc(C(=O)N(CC)CC)c(=O)c3c2)cc1
Result: 0
